These measurements were taken from patent US20250032439A1.

Target: human 5-HT2B receptor (Homo sapiens, UniProt P41595)
Sequence (P41595 whole entry): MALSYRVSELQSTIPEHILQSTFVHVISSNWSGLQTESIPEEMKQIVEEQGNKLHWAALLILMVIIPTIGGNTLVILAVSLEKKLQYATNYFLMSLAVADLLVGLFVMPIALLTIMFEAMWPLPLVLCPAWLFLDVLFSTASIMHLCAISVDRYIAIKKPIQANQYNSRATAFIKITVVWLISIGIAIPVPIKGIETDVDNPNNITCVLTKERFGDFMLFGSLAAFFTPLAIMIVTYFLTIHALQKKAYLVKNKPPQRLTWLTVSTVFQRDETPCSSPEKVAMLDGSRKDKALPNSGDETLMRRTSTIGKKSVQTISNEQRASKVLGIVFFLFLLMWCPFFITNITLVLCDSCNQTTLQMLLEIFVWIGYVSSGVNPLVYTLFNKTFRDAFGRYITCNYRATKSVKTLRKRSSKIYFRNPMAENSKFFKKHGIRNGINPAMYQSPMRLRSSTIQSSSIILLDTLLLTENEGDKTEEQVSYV
Experiment: Antagonism of human serotonin 5-HT2B, IP1 functional assay (HTRF) in transfected CHO cells
Settings: inhibition of IP1 production induced by 30 nM 5-HT
Quantity name: IC50

* Cn1ccc2cc3c(cc21)CCN3C(=O)Nc1cccnc1 | 0.026 µM
* CC(=O)OC/C=C(C)/C=C/C=C(C)/C=C/C1=C(C)CCCC1(C)C [RetAc mix, retinyl acetate] | 5.2 µM
* CC(=O)OC/C=C(C)/C=C/C=C(C)/C=C/C1=C(C)CCCC1(C)C [Reference retAc, retinyl acetate] | 12 µM
